# Tested on: EKVX NSCLC
# TEST_DESCRIPTION: NCI-60 one-dose screen, 48 h (100 = growth as untreated, 0 = no growth, -100 = all killed)
# EXPERIMENTAL_SETUP: 10 µM unless noted
Compounds without any hit were thinned out: in the full panel of roughly 83,000, 20% have a hit.
For each entry below, report its growth value.
One number for each entry, in %.

Sample records with growth:
> print(dat)
                                   compound  data.value
1  CC1(C)N=C(N)N=C(N)N1c1cccc(CCCCc2ccc(Cl)c(S(=O)(=O)F)c2)c1        51.5
2  CC1=C(CN)C2=C(C)C3(CC3)[C@@](C)(O)C(=O)C2=C1         102
3     O=[N+]([O-])c1cc(I)cc([N+](=O)[O-])c1        99.9

Provide the reported growth of each entry below, same order.
1. COC(=O)[C@@H](C)C[C@H](Cc1ccccc1)NC(=O)c1csc([C@@H](C[C@H](C(C)C)N(C)C(=O)[C@H](C)NC(=O)[C@H]2CCCCN2C)OC(C)=O)n1
2. COc1ccc(C2=CC(c3ccc(OC)c(OC)c3)c3c(c4ccccc4oc3=O)O2)cc1OC (stereo not drawn)
3. CCN1C(=O)C(=C/C=C/c2ccccc2)C(=O)N(CC)C1=O
4. O=c1[nH]cc(N(CCCl)CCCl)c(=O)[nH]1
5. c1cnc2[nH]cc(-c3csc(-c4cn(CCCCN5CCOCC5)c5ccccc45)n3)c2c1

1: 53.6; 2: 30.4; 3: 112; 4: 101; 5: 64
